Assay: physchem
Settings: octanol/water, pH 6.8
ENDPOINT_LABEL: logD

Bench note: what logD did COCCCOc1cc(C[C@@H](C[C@H](N)[C@@H](O)C[C@H](C(=O)NCC(C)(C)C(N)=O)C(C)C)C(C)C)ccc1OC.COCCCOc1cc(C[C@@H](C[C@H](N)[C@@H](O)C[C@H](C(=O)NCC(C)(C)C(N)=O)C(C)C)C(C)C)ccc1OC.O=C(O)/C=C/C(=O)O [ALISKIREN FUMARATE] show?
0.1

###

// reported bioavailability per item
Assay: in vivo
Settings: marmoset, po, 3 mg/kg
Answer format: numeric, % implied, no suffix.

Solved cases (5 shown):
CNC(=O)C(C)(C)CNC(=O)[C@@H](C[C@H](O)[C@@H](N)C[C@H](Cc1ccc(OC)c(OCCCOC)c1)C(C)C)C(C)C.Cl : 25
COCCCCc1cc(C[C@@H](C[C@H](N)[C@@H](O)C[C@H](C(=O)NCCN2CCOCC2)C(C)C)C(C)C)ccc1OC.Cl : 30
COCCCOc1cc(C[C@@H](C[C@H](N)[C@@H](O)C[C@H](C(=O)NC[C@@H]2CCC(=O)N2)C(C)C)C(C)C)ccc1OC.Cl : 22
COCCCOc1cc(C[C@@H](C[C@H](N)[C@@H](O)C[C@H](C(=O)NCCC(=O)N(C)C)C(C)C)C(C)C)ccc1OC.Cl : 14
COCCCCc1cc(C[C@@H](C[C@H](N)[C@@H](O)C[C@H](C(=O)NCC(C)(C)C(N)=O)C(C)C)C(C)C)ccc1OC.Cl : 8

// next entry
Bench note: what bioavailability did "COCCCOc1cc(C[C@@H](C[C@H](N)[C@@H](O)C[C@H](C(=O)NCC(C)(C)C(N)=O)C(C)C)C(C)C)ccc1OC.Cl" show?
16

###

Target: Renin (Homo sapiens, UniProt P00797)
Sequence (P00797 whole entry): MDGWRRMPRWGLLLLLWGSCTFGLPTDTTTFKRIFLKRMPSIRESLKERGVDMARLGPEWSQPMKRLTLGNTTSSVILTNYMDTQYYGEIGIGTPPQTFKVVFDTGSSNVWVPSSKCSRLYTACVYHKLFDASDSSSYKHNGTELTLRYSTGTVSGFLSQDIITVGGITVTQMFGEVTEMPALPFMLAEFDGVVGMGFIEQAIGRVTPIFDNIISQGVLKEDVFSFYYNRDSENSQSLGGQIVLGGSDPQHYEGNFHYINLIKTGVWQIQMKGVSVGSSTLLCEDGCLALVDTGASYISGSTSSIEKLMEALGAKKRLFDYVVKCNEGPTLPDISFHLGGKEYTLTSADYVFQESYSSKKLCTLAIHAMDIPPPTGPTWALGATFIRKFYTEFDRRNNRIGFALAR
// reported pIC50 per item
pIC50 is defined as minus the log10 of a concentration measured in mol/L.

Solved cases (5 shown):
COCCCOc1cc(C[C@@H](C[C@H](N)[C@@H](O)C[C@H](C(=O)NCC(C)(C)N2CCOCC2)C(C)C)C(C)C)ccc1OC : 8.70
COCCCOc1cc(C[C@@H](C[C@H](N)[C@@H](O)C[C@H](C(=O)N[C@@H](CO)C(N)=O)C(C)C)C(C)C)ccc1OC : 8.52
COCCCCc1cc(C[C@@H](C[C@H](N)[C@@H](O)C[C@H](C(=O)NCCN2CCOCC2)C(C)C)C(C)C)ccc1OC.Cl : 9.05
COCCCOc1cc(C[C@@H](C[C@H](N)[C@@H](O)C[C@H](C(=O)NCCN2CCOCC2)C(C)C)C(C)C)ccc1OC : 9.00
COCCCOc1cc(C[C@@H](C[C@H](N)[C@@H](O)C[C@H](C(=O)NCC(C)(C)C(=O)O)C(C)C)C(C)C)ccc1OC : 7.89

Bench note: what pIC50 did "COCCCOc1cc(C[C@@H](C[C@H](N)[C@@H](O)C[C@H](C(=O)NC[C@@H]2CCC(=O)N2)C(C)C)C(C)C)ccc1OC.Cl" show?
9.05

Item: "COCCCOc1cc(C[C@@H](C[C@H](N)[C@@H](O)C[C@H](C(=O)N[C@@H](C)CC(N)=O)C(C)C)C(C)C)ccc1OC"
8.70

Item: "COCCCOc1cc(C[C@@H](C[C@H](N)[C@@H](O)C[C@H](C(=O)NCCc2nn[nH]n2)C(C)C)C(C)C)ccc1OC"
8.70

Item: "COCCCOc1cc(C[C@@H](C[C@H](N)[C@@H](O)C[C@H](C(=O)NC(C)(C)C(N)=O)C(C)C)C(C)C)ccc1OC"
7.00

Item: "COCCCOc1cc(C[C@@H](C[C@H](N)[C@@H](O)C[C@H](C(=O)NC(C)(C)CN2CCOCC2)C(C)C)C(C)C)ccc1OC"
7.57

Item: "COCCCOc1cc(C[C@@H](C[C@H](N)[C@@H](O)C[C@H](C(=O)NC[C@H]2CCC(=O)N2)C(C)C)C(C)C)ccc1OC.Cl"
9.00

Item: "COCCCCc1cc(C[C@@H](C[C@H](N)[C@@H](O)C[C@H](C(=O)NCC(C)(C)C(N)=O)C(C)C)C(C)C)ccc1OC.Cl"
8.52

Item: "CNC(=O)C(C)(C)CNC(=O)[C@@H](C[C@H](O)[C@@H](N)C[C@H](Cc1ccc(OC)c(OCCCOC)c1)C(C)C)C(C)C.Cl"
9.15

Item: "COCCCOc1cc(C[C@@H](C[C@H](N)[C@@H](O)C[C@H](C(=O)N[C@H](C)CC(N)=O)C(C)C)C(C)C)ccc1OC"
7.24

Item: "COCCCOc1cc(C[C@@H](C[C@H](N)[C@@H](O)C[C@H](C(=O)NCCCN2CCOCC2)C(C)C)C(C)C)ccc1OC"
8.52
